List of IC50 tested on Ret-1 (Homo sapiens).
Sequence (P07949 29-1114): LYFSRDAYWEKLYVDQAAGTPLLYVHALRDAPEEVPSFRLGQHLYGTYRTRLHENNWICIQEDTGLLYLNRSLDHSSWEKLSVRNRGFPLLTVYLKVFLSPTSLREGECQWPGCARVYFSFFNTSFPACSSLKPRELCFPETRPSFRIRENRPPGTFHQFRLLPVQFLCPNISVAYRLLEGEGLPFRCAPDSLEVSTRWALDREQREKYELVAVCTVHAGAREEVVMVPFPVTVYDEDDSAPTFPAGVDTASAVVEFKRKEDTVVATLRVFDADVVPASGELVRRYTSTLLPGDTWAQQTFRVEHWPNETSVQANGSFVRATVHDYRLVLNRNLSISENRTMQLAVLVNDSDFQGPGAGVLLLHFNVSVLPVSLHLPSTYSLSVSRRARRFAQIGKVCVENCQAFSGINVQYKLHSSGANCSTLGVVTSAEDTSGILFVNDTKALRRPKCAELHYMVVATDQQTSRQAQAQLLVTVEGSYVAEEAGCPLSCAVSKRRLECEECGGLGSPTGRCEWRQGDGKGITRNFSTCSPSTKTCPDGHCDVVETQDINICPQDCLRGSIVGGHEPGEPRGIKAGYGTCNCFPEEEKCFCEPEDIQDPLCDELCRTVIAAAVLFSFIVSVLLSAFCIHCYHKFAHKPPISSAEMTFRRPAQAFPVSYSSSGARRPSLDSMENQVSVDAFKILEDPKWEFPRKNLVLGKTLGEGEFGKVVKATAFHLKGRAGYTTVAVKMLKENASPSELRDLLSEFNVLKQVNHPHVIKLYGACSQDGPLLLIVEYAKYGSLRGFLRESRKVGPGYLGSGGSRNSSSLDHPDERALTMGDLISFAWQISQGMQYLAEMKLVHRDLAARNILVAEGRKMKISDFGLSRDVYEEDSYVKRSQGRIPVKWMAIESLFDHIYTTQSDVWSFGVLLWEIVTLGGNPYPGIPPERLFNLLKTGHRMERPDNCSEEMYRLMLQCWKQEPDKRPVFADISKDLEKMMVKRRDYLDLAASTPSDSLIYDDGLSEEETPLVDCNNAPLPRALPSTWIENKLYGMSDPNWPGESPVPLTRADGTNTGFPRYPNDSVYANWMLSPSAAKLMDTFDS
Quantity: IC50

>>> meas_value("CCN(CC)CCOc1cc(Nc2ncnc(Nc3cc(OC)c(OC)c(OC)c3)n2)ccc1OC [Compound 600]")
"0.802 to 4.81 µM"
>>> meas_value("COc1cc(Nc2ncnc(-n3c(NC4CCCc5ccccc54)nc4ccccc43)n2)cc(OC)c1OC (centres unmarked) [Compound 587]")
"< 0.764 µM"
>>> meas_value("COc1cc(Nc2ncnc(-c3ccccc3)n2)cc(OC)c1OC [Compound 970]")
"> 13.3 µM"
>>> meas_value("COc1cc(Nc2ncnc(Nc3cccc(Cl)c3)n2)cc(OC)c1OC [Compound 135]")
"1.03 to 6.19 µM"
>>> meas_value("COc1cc(Nc2ncnc(-n3cc(CC(N)=O)c4ccccc43)n2)cc(OC)c1OC [Compound 353]")
"< 0.921 µM"
>>> meas_value("COc1cc(Nc2ncnc(-n3c(NCCc4ccccn4)nc4ccccc43)n2)cc(OC)c1OC [Compound 510]")
"0.802 to 4.81 µM"
>>> meas_value("COc1cccc(Nc2ncnc(Nc3cc(OC)c(OC)c(OC)c3)n2)c1 [Compound 87]")
"1.04 to 6.26 µM"
>>> meas_value("COc1cc(Nc2ncnc(-n3c(NCc4ccc(Cl)cc4F)nc4ccccc43)n2)cc(OC)c1OC [Compound 606]")
"0.746 to 4.48 µM"
>>> meas_value("COc1cc(Nc2ncnc(Nc3ccc(C)c(F)c3)n2)cc(OC)c1OC [Compound 300]")
"1.04 to 6.23 µM"
>>> meas_value("COc1cc(Nc2ncnc(Nc3cc(OC)c(OC)c(OC)c3)n2)cc(OC)c1 [Compound 86]")
"0.968 to 5.81 µM"
>>> meas_value("Cc1cccc(Nc2ncnc(Nc3ccc(O)cc3)n2)c1 [Compound 107]")
"1.36 to 8.18 µM"
>>> meas_value("COc1cc(Nc2ncnc(-n3c(Nc4ccccc4)nc4ccccc43)n2)cc(OC)c1OC [Compound 336]")
"< 0.852 µM"
>>> meas_value("COc1cc(Nc2ncnc(Nc3ccc(Cl)cc3F)n2)cc(OC)c1OC [Compound 306]")
"< 0.986 µM"
>>> meas_value("COc1cc(Nc2ncnc(Nc3cccc(O)c3)n2)cc(OC)c1OC [Compound 78]")
"< 1.08 µM"
>>> meas_value("COc1ccc(Nc2ncnc(N(CC(=O)O)c3ccc4c(c3)OCO4)n2)cc1OC [Compound 320]")
"> 10.6 µM"
>>> meas_value("COc1ccc(N(C)c2ncnc(Nc3cc(OC)c(OC)c(OC)c3)n2)cc1 [Compound 106]")
"1.01 to 6.04 µM"
>>> meas_value("COc1cc(Nc2ncnc(-n3c(NCc4cccc(Cl)c4)nc4ccccc43)n2)cc(OC)c1OC [Compound 949]")
"< 0.772 µM"
